Every entry's value here was drawn from ChEMBL document CHEMBL3860108.

A short record of IC50 observed with Serine/threonine-protein kinase TNNI3K (Homo sapiens) follows.
Sequence (Q59H18 whole entry): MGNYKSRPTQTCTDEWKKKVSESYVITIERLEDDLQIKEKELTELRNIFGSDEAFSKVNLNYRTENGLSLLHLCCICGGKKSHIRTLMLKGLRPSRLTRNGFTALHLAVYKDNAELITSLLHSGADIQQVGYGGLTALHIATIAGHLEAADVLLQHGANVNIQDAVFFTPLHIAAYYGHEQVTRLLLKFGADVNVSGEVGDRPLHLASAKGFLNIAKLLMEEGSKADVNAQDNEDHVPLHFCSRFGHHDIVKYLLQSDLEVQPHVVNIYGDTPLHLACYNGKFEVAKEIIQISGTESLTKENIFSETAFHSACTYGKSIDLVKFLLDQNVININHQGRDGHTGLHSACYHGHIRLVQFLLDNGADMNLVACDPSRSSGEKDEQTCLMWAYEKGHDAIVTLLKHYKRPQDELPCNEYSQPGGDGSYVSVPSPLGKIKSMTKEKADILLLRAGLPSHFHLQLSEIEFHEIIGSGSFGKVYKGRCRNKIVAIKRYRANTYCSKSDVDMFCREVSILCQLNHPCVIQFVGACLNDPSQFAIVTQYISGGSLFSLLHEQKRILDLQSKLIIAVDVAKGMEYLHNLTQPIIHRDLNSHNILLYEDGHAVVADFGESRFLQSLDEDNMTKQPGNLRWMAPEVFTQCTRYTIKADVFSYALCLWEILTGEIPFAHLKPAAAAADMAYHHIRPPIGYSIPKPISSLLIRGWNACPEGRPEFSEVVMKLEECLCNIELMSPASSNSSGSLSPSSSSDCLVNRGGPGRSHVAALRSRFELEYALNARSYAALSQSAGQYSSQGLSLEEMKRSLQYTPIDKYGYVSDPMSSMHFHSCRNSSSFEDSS
VALUE TYPE: IC50 (nM)

CNS(=O)(=O)c1ccc(O)c(Nc2cc(Nc3ccc(Cl)cc3)ncn2)c1
160
CNS(=O)(=O)c1ccc(OC(F)(F)F)c(Nc2ncnc3[nH]ccc23)c1
50
CNS(=O)(=O)c1ccc(-c2ccccc2)c(Nc2ncnc3[nH]ccc23)c1
200
CNS(=O)(=O)c1ccc(N(C)C)c(Nc2ncnc3[nH]c4ccccc4c23)c1
50
CNS(=O)(=O)c1ccc(SC)c(Nc2ncnc3[nH]ccc23)c1
130

[1] CNS(=O)(=O)c1cccc(Nc2cc(Nc3ccc(Cl)cc3)ncn2)c1
[2] CNS(=O)(=O)c1ccc(N2CCCC2)c(Nc2ncnc3[nH]ccc23)c1
Given the listed items, does 1 or 2 have the lesser reported IC50? Please reply using the label of the selected record.
1
